For each entry below, report its self-splicing fitness (ln) value.
Test: self-splicing fitness, log relative to wild type (ln ratio); higher = more splicing; Tetrahymena group I intron in knt gene, E. coli kanamycin selection, DiMSum; sequences stand for … in CUCUCU…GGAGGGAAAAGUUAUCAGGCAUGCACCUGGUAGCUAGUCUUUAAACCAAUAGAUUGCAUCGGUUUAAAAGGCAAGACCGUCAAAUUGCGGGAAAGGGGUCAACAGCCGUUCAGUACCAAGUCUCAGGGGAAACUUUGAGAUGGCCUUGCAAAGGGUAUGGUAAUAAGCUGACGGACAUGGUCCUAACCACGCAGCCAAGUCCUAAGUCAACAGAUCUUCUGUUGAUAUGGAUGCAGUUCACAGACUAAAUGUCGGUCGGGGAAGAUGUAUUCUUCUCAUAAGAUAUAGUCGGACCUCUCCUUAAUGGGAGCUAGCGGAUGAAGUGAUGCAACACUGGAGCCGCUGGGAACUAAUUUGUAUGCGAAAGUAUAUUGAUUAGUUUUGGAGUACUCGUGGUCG;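 note: selection with 25 µg/mL kanamycin versus none on LB agar overnight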
Conditions: 37 °C
Give the figure only, with no unit attached.

Consider the sequence `AUCGAGCAAUAUUACGUCCG` and give its measured self-splicing fitness (ln).
-2.94

# get_value(readout='self-splicing fitness (ln)', item= `UGUGAGCAAUAUUACGCGCC` )
-1.9

Give its self-splicing fitness (ln) value. Item: `UUCUAGCAAUAUUACGAACC`
-1.8

Field request: self-splicing fitness (ln) | item: `GUCCAGCAAUAUUACGGUUC`
0.219

What self-splicing fitness (ln) value was documented for this sequence, `GCACAGCAAUAUUACGCGAU` ?
-1.55

Dear colleague, I am looking for the recorded self-splicing fitness (ln) of the following sequence: `CUGAAGCAAUAUUACGCCAG`
-1.17

I would be grateful if you could share the reported self-splicing fitness (ln) for `AGUAAGCAAUAUUACGUUGA` .
-2.1

Fill in: self-splicing fitness (ln) of `GAAAAGCAAUAUUACGCAUA` is ___
-0.672

Reported self-splicing fitness (ln), sequence `ACUGAGCAAUAUUACGCCAU` : ____
-2.74

Give its self-splicing fitness (ln) value. Item: `ACUAAGCAAUAUUACGGUAC`
-1.89

Would you mind telling me what self-splicing fitness (ln) value was observed for `CGUAAGCAAUAUUACGAGUU` ?
-2.6

Requested read-out: self-splicing fitness (ln). Entry: `GCGGAGCAAUAUUACGGCUA`
-1.81

Please look up its self-splicing fitness (ln): `AGAUAGCAAUAUUACGGAUA`
-1.23

Quick one: self-splicing fitness (ln) for `UUCCAGCAAUAUUACGGAGA` ?
-0.628

For `AACGAGCAAUAUUACGCCCG` , what is its reported self-splicing fitness (ln)?
-0.148

Reported self-splicing fitness (ln), sequence `GCAAAGCAAUAUUACGACCG` : ____
-1.26

---

Experiment: self-splicing fitness, log relative to wild type (ln ratio); higher = more splicing; Tetrahymena group I intron in knt gene, E. coli kanamycin selection, DiMSum; sequences stand for … in CUCUCU…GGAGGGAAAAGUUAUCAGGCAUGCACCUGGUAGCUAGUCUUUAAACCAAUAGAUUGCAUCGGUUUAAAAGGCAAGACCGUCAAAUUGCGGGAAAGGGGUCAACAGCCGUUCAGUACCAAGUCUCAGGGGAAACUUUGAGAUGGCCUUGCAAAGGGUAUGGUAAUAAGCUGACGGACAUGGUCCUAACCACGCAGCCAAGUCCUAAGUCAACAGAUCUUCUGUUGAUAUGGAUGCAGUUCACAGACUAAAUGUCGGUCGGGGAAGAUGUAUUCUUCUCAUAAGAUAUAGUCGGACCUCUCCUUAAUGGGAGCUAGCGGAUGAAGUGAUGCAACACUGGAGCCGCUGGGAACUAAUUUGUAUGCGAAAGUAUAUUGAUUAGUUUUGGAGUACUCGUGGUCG
Details: 37 °C
Kindly state self-splicing fitness (ln) for each of the entries shown.
Give the figure by itself; no unit, no explanation.

Which self-splicing fitness (ln) value is on record for `CAACAGCAAUAUUACGUCAG` ?
-0.55

Would you mind telling me what self-splicing fitness (ln) value was observed for `CAUCAGCAAUAUUACGAAAU` ?
-2.66

Which self-splicing fitness (ln) is reported for this sequence? `UAUGAGCAAUAUUACGAUCC`
-3.06

What does the data say about its self-splicing fitness (ln)? Entry: `AGGUAGCAAUAUUACGUAAG`
-1.25

self-splicing fitness (ln) for `GCAUAGCAAUAUUACGGUGU` ?
-2.47

Item under review: `UAUAAGCAAUAUUACGUAGC` . Reported self-splicing fitness (ln)?
-2.05

Entry `UAGGAGCAAUAUUACGUACU` : reported self-splicing fitness (ln) = ?
-1.73

May I ask what self-splicing fitness (ln) has been recorded for `CUACAGCAAUAUUACGCAAU` ?
-2.86

self-splicing fitness (ln) lookup needed for `CGUUAGCAAUAUUACGAAAA` , thanks.
-1.83

For the sequence `GGACAGCAAUAUUACGCCCG` , what self-splicing fitness (ln) is on record?
-0.591

Data request, read-out self-splicing fitness (ln), for `UGACAGCAAUAUUACGGACU`
0.203

# self-splicing fitness (ln) lookup, item `ACGUAGCAAUAUUACGACUC`
-0.584

Request the reported self-splicing fitness (ln) associated with `AAAGAGCAAUAUUACGAUUU`
0.468

Which self-splicing fitness (ln) reading was recorded for the sequence `UAAGAGCAAUAUUACGGUGU` ?
-3.27

What measured self-splicing fitness (ln) goes with `AGCCAGCAAUAUUACGUUGG` ?
-2.56

Dear colleague, I am looking for the recorded self-splicing fitness (ln) of the following sequence: `GUCAAGCAAUAUUACGCCUG`
-2.6
